Could you please report measured melting point for the items listed next?

Enquiry: Could you share which melting point value was measured for `Nc1nc(C(=O)C(=O)O)cs1` ?
Return: > 200 °C

Enquiry: Let us now turn to O=C1C(=O)c2ccc(-c3ccccc3)cc2C2=C1SCC1(CCN(CC(O)COc3ccc(F)cc3)CC1)O2 (centres undefined)
Return: 173 to 175 °C

Enquiry: Let us now turn to COc1ccccc1NS(=O)(=O)c1ccc(COC2CCCCO2)cc1 (centres undefined)
Return: 67 to 70 °C

Enquiry: Let us now turn to `Cc1c(NC(=O)c2ccc(-c3ccccc3F)cc2)ccc2cc(CN3CCCC3)cnc12`
Return: 133 to 135 °C

Enquiry: Let us now turn to `O=C(CC(=O)C1CC1)Nc1ccc(C(F)(F)F)cc1`
Return: 131 to 132 °C

Enquiry: Let us now turn to `COC(=O)c1ccc(-c2ccccn2)cc1`
Return: 96 °C

Enquiry: Let us now turn to `COc1ccc2cccc(N3C(=O)CN(CC#N)CC3=O)c2c1`
Return: 204 °C

Enquiry: Let us now turn to `Cc1cc(N2CCC3(CC2)OCCO3)c2cc(C)c(-c3ccc(Cl)cc3Cl)n2n1`
Return: 193 to 196 °C

Enquiry: Let us now turn to `CC(C)n1nc(O)nc1N(C)C`
Return: 111 to 112 °C

###

Could you please report measured melting point for the items listed next?

Enquiry: Could you share which melting point value was measured for `Cn1ncc(C(=O)N2CC(F)C2)c1C(=O)Nc1ccn2nc(-c3ccccc3)nc2c1` ?
Return: 259 to 262 °C

Enquiry: Let us now turn to `CC1CCN(C(=O)c2ccc3nonc3c2)CC1`
Return: 86 to 87 °C

Enquiry: Let us now turn to `CCOC(=O)c1cn(Cc2ccc(OCc3ccccc3)cc2)nc1-c1ccccc1`
Return: 102 to 103 °C

Enquiry: Let us now turn to `Clc1nc(-n2cccn2)ncc1Cc1ccccc1`
Return: 149 to 151 °C

###

Property: melting point

Enquiry: Could you share which melting point value was measured for `O=C(Cl)N1CC(Oc2cc(C(F)(F)F)ccc2Cl)C1` ?
Return: 40 to 45 °C

Enquiry: Let us now turn to `O=C(CNC(=O)c1ccc(S(=O)(=O)F)cc1)Nc1cccc(-c2cccc3c2/C(=C/c2ccc[nH]2)C(=O)N3)c1`
Return: 248 to 250 °C

Enquiry: Let us now turn to `CSc1ncc(C(=O)NCCO)c(Nc2ccc3[nH]ncc3c2)n1`
Return: > 270 °C

Enquiry: Let us now turn to `CCOC(=O)c1sc(N2CCNC2=O)nc1C`
Return: 197 to 199 °C

Enquiry: Let us now turn to `CNCCOc1ccc(NC(=O)c2ccc(N3CCNCC3)cc2)c(C)c1`
Return: 136 to 137 °C

Enquiry: Let us now turn to `CC(C)C(=O)Nc1cc(C(C)(C)C)on1`
Return: 123 to 124 °C

Enquiry: Let us now turn to Cn1ccnc1CC1COc2ccccc2O1 (configuration not stated)
Return: 158 to 160 °C

Enquiry: Let us now turn to `COC=C(C(=O)OC)n1ccc2ccc(-c3nccc(-c4ccccc4)n3)cc21`
Return: 85 °C

Enquiry: Let us now turn to `COc1cc(COc2nn(-c3ccccc3)cc2/C=C/P(=O)(OC)OC)ccc1OCc1nc(-c2ccco2)oc1C`
Return: 107 to 108 °C

Enquiry: Let us now turn to `Cc1ccc(Br)c(C)c1C#N`
Return: 60 °C

Enquiry: Let us now turn to `COC(=O)c1cc(Nc2ccccc2)c(Nc2ccccc2)cc1C(=O)OC`
Return: 178 °C

Enquiry: Let us now turn to `O=C(O)c1ccccc1COc1ccccc1Br`
Return: 175 to 177 °C

Enquiry: Let us now turn to `O=c1nc(-c2ccccc2)c2ccsc2[nH]1`
Return: 247 to 249 °C

Enquiry: Let us now turn to `CN(C)CCCOc1ccc(-c2n[nH]c3ncccc23)cc1`
Return: 176 to 177 °C

Enquiry: Let us now turn to `N#Cc1c(N)nc2ccc(N3CCN(Cc4ccccc4)CC3)cc2c1N=Cc1ccccc1`
Return: 202 °C

Enquiry: Let us now turn to `COc1cc(C(C)=O)cc(OC)c1O[Si](C)(C)C(C)(C)C`
Return: 90 to 92 °C

Enquiry: Let us now turn to `c1ccc(N=C(N=C(Nc2ccccc2)c2ccccc2)N2CCCC2)cc1`
Return: 246 to 247 °C

Enquiry: Let us now turn to `CN(C)CCCOc1cc(F)c(-c2c(Cl)nc(-n3ccnc3)nc2NCC(F)(F)F)c(F)c1`
Return: 47 to 49 °C

Enquiry: Let us now turn to CC(=O)Nc1ccc2c(c1)C(c1cccn1-c1cccc(Cl)c1)C(=O)N2 (configuration not stated)
Return: 251 °C

Enquiry: Let us now turn to `CC(C)(C)c1cc(C=Nn2ccnc2)cc(C(C)(C)C)c1O`
Return: 171 to 174 °C

Enquiry: Let us now turn to O=C(NC(O)C(=O)O)OCc1ccccc1 (configuration not stated)
Return: 194 to 198 °C

Enquiry: Let us now turn to `COc1c(C(=O)Nc2ccc(N(C(C)=O)S(C)(=O)=O)cc2)cc(N2CCC(=O)NC2=O)cc1C(C)(C)C`
Return: 228 to 229 °C
